assayed_target: T1, human apical domain of CD71 (human, UniProt P02786 189-383, limits assumed)
T1 construct: domain: apical domain
T1 sequence (P02786 189-383 limits assumed): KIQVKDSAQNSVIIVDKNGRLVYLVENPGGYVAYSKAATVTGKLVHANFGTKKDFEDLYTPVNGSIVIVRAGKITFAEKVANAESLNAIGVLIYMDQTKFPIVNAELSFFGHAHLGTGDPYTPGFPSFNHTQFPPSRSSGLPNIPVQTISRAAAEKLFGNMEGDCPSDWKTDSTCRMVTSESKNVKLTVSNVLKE
assay_notes: primary ELISA; signal over HSA control
I'd appreciate it if you could supply Apical domain:HSA values for the items below.
The figure you give is taken to be in ratio; do not add the unit.

Looking up CD71-binding FN3 domain SEQ ID NO 346 (designed binder) MLPAPKNLVVSRVTEDSARLSWTAPDAAFDSFFIGYLEPQPPGEAISLFVPGSERSYDLTGLKPGTEYNVTIQGVKGGFPSDPLNATFNT , I found its Apical domain:HSA recorded as 83

Looking up CD71-binding FN3 domain SEQ ID NO 353 (designed binder) MLPAPKNLVVSRVTEDSARLSWTAPDAAFDSFFIGYLEPQPPGEAIGLFVPGSERSYDLTGLKPGTEYNVTIQGVKGGFPSNPLEARFTT , I found its Apical domain:HSA recorded as 80

Looking up CD71-binding FN3 domain SEQ ID NO 414 (designed binder) MLPAPKNLVVSRVTEDSARLSWTAPDAAFDSFFIGYLEPQPPGEAIHLYVPGSERSYDLTGLKPGTEYNVTIQGVKGGFPSHPLIANFTT , I found its Apical domain:HSA recorded as 79

Looking up CD71-binding FN3 domain SEQ ID NO 368 (designed binder) MLPAPKNLVVSRVTEDSARLSWTAPDAAFDSFFIGYLEPQPPGEAITLTVPGSERSYDLTGLKPGTEYNVTIQGVKGGFPSGPLIASFTT , I found its Apical domain:HSA recorded as 246

Ref: patent US20260151494A1
